Data provenance: paper PMC5540273

- Test system: DCAMKL3;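 further: KINOMEscan kinase panel screen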
- Construct: gene DCLK3
- Applied conditions: concentration: 1 μM, replicates: in singlicate; n = 1
Measured property: %Inh (%)
Write the answer as a number in %, unit excluded.

Solved cases below.
>  <Compound>
NS(=O)(=O)c1cccc(N/C=C2\C(=O)Nc3ccc(S(=O)(=O)Cc4c(Cl)cccc4Cl)cc32)c1

>  <Measured property>
%Inh

>  <Readout units>
%

>  <Value>
0

$$$$
>  <Compound>
COC(=O)c1cccc(NC(=O)NC2CCN(c3ccnc(Nc4ccc(F)cc4)n3)C2)c1 (stereo not shown)

>  <Measured property>
%Inh

>  <Readout units>
%

>  <Value>
12

$$$$
>  <Compound>
COc1ccc(CSc2nnc(-c3ccc4ncsc4c3)o2)cc1C(F)(F)F

>  <Measured property>
%Inh

>  <Readout units>
%

>  <Value>
0

$$$$
>  <Compound>
Nc1nccc(-c2c(-c3ccc(F)cc3)ncn2C2CCN(Cc3ccccc3)CC2)n1

>  <Measured property>
%Inh

>  <Readout units>
%

>  <Value>
13

$$$$
>  <Compound>
CCn1c(-c2c(N)noc2C)nc2cnccc21

>  <Measured property>
%Inh

>  <Readout units>
%

>  <Value>
0

$$$$
>  <Compound>
COc1ccc(Nc2nccc(-c3ccc(NC(=O)c4cc5cc(F)ccc5[nH]4)cc3)n2)cc1

>  <Measured property>
%Inh

>  <Readout units>
%

>  <Value>
0

$$$$

# next compound below
Query O=c1cc(N2CCOCC2)nc2n(Cc3ccccc3F)ccn12 yields %Inh of 3
